Values from patent US20250154277A1

Target: T1, human 5T4-His protein (human, UniProt Q13641 32-355)
T1 construct: also called recombinant 5T4 protein (human 5T4-his tag); human 5T4 protein; not shown: His tag
T1 sequence (looked up): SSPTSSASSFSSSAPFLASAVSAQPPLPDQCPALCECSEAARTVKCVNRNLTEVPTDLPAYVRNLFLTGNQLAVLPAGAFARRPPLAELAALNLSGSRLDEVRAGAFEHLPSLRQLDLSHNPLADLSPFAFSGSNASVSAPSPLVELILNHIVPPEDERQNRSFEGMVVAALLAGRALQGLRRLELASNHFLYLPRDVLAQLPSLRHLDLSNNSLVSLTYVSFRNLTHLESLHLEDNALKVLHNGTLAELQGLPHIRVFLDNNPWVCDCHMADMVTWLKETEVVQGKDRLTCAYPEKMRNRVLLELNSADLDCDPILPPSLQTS
Experiment: SPR Biacore, Protein A capture
pKd: −log10 of the molar value.
property: pKd

>>> result_value("Hu14G12-43 (antibody, V domains shown, humanized) VH: QVQLVQSGAEVKKPGASVKVSCKASGYAFSSSWMNWVRQAPGQGLEWMGRIYREDGHTNYNGKFKGRVTMTADKSTTTAYMELRSLRSDDTAVYYCANGGAMDYWGQGTLVTVSS VL: DIQMTQSPSSLSASVGDRVTITCRASQDISNYLNWYQQKPGKAPKLLIYYTSRLHSGVPSRFSGSGSGTDYTFTISSLQPEDIATYFCQQDNTLPWTFGGGTKVEIK")
9.07
>>> result_value("Hu14G12-1 (antibody, V domains shown, humanized) VH: EVQLVQSGAEVKKPGATVKISCKVSGYAFSSSWMNWVQQAPGKGLEWMGRIYREDGHTNYNGKFKGRVTITADTSTDTAYMELSSLRSEDTAVYYCATGGAMDYWGQGTLVTVSS VL: DIQMTQSPSSLSASVGDRVTITCRASQDISNYLNWYQQKPGKAPKLLIYYTSRLHSGVPSRFSGSGSGTDFTFTISSLQPEDIATYYCQQDNTLPWTFGGGTKLEIK")
7.37
>>> result_value("Hu14G12-8 (antibody, V domains shown, humanized) VH: EVQLVQSGAEVKKPGATVKISCKVSGYAFSSSWMNWVQQAPGKGLEWIGRIYREDGHTNYNGKFKGRVTITADTSTDTAYMELSSLRSEDTAVYFCANGGAMDYWGQGTLVTVSS VL: DIQMTQSPSSLSASVGDRVTISCRASQDISNYLNWYQQKPGKTVKLLIYYTSRLHSGVPSRFSGSGSGTDYTFTISSLQPEDIATYFCQQDNTLPWTFGGGTKLEIK")
8.87
>>> result_value("Hu14G12-11 (antibody, V domains shown, humanized) VH: EVQLVQSGAEVKKPGATVKISCKVSGYAFSSSWMNWVKQAPGKGLEWIGRIYREDGHTNYNGKFKGRATITADTSTTTAYMELSSLRSEDTAVYFCANGGAMDYWGQGTLVTVSS VL: DIQMTQSPSSLSASVGDRVTISCRASQDISNYLNWYQQKPGKAVKLLIYYTSRLHSGVPSRFSGSGSGTDFTFTISSLQPEDIATYFCQQDNTLPWTFGGGTKLEIK")
8.66
>>> result_value("Hu14G12-28 (antibody, V domains shown, humanized; also called parental Hu14G12-28 antibody) VH: QVQLVQSGAEVKKPGASVKVSCKASGYAFSSSWMNWVRQAPGQGLEWMGRIYREDGHTNYNGKFKGRVTMTADKSITTAYMELSRLRSDDTAVYYCANGGAMDYWGQGTLVTVSS VL: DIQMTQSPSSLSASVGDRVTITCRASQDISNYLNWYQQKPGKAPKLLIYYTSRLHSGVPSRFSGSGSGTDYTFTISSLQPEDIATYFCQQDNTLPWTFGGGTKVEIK")
8.62
>>> result_value("Hu14G12-37 (antibody, V domains shown, humanized) VH: QVQLVQSGAEVKKPGASVKVSCKASGYAFSSSWMNWVRQAPGQGLEWMGRIYREDGHTNYNGKFKGRVTMTADKSTTTAYMELSSLRSEDTAVYYCANGGAMDYWGQGTLVTVSS VL: DIQMTQSPSTLSASVGDRVTITCRASQDISNYLNWYQQKPGKAPKLLIYYTSRLHSGVPSRFSGSGSGTEYTLTISSLQPDDIATYFCQQDNTLPWTFGGGTKVEIK")
8.98
